- ASSAY_DETAILS: Antiproliferative against in mouse Ba/F3 EGFR-Del19/T790M/C797S cells
- Format: functional, cell-based
pIC50: −log10 of the molar value.
MEASUREMENT_LABEL: pIC50

INSERT INTO measurements (molecule, result_operator, endpoint_result) VALUES
  ('C=C(C)c1cnc(Nc2ccc(N3CCC4(CC3)CN(C)C4)cc2)nc1Nc1ccccc1P(C)(C)=O', '≥', 7.00),
  ('COc1cc2c(Nc3ccc(NC(=O)C(c4cc(F)ccc4F)N4Cc5ccccc5C4=O)cc3F)ncnc2cc1OCC1CCN(C)CC1 (centres undefined)', '=', 8.45),
  ('CCc1cc(Nc2ncc(Br)c(Nc3ccc4nccnc4c3P(C)(C)=O)n2)c(OC)cc1N1CCC(N2CCN(C)CC2)CC1', '=', 8.05),
  ('CN1CC2(CCN(c3ccc(Nc4ncc(Cl)c(Nc5ccccc5P(C)(C)=O)n4)cc3Br)CC2)C1', '≥', 7.00),
  ('C=CC(=O)Nc1cc(Nc2nccc(-c3cn(C)c4ccccc34)n2)c(OC)cc1N(C)CCN(C)C', '=', 6.14),
  ('Cn1cc(-c2cc(C(=O)/N=c3\[nH]c4ccccc4n3[C@H]3CC[C@H](O)CC3)ccn2)cn1', '=', 7.92),
  ('C=CC(=O)Nc1cc(Nc2ncc(C(=O)OC(C)C)c(-c3cc4ccccc4n3C)n2)c(OCC(F)(F)F)nc1N(C)CCN(C)C', '=', 8.05),
  ('Cc1cc(Nc2ncc(Cl)c(Nc3ccccc3P(C)(C)=O)n2)ccc1N1CCC2(CC1)CN(C)C2', '≥', 7.00),
  ('C=CC(=O)Nc1cc(Nc2ncc(C(=O)OC(C)C)c(-c3cc4ccccc4n3C3CC3)n2)c(OCC(F)(F)F)nc1N(C)CCN(C)C', '=', 8.00);

---

- EXPERIMENTAL_SYSTEM: Epidermal growth factor receptor (Homo sapiens, UniProt P00533, C797S/L858R/T790M)
- Sequence (P00533 25-1210 T790M/C797S/L858R limits assumed): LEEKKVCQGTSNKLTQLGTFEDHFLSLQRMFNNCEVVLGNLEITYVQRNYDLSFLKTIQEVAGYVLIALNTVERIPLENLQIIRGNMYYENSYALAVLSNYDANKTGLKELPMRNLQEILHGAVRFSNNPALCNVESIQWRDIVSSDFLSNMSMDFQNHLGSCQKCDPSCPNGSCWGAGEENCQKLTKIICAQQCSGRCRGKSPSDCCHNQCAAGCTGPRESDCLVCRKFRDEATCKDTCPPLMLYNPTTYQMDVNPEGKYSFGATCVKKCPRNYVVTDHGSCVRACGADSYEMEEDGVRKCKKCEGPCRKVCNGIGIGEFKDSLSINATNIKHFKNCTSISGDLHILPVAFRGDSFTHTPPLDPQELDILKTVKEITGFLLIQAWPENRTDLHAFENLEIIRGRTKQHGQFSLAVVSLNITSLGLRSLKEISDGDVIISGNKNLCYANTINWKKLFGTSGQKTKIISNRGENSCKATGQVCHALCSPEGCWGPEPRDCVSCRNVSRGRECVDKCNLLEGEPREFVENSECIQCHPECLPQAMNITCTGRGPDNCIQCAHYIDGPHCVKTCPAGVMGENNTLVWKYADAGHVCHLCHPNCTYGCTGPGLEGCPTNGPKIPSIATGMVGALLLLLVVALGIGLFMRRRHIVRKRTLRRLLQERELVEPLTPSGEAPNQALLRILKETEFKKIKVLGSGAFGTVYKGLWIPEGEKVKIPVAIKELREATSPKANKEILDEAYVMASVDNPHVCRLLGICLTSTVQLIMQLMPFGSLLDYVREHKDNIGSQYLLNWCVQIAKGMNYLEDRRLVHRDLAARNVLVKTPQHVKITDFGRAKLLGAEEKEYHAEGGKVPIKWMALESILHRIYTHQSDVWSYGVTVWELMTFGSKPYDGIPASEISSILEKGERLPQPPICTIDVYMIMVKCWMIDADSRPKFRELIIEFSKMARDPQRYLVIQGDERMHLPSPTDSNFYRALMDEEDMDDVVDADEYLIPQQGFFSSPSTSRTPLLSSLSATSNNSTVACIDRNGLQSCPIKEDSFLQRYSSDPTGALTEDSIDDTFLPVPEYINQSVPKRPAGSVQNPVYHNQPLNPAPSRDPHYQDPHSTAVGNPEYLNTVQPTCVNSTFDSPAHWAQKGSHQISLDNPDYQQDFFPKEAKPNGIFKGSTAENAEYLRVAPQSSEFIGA
- ASSAY_DETAILS: Inhibition of EGFR L858R/T790M/C797S triple mutant (unknown origin)
Measured IC50, listed per entry.
MEASUREMENT_LABEL: IC50 (nM)

INSERT INTO results (smiles_code, endpoint_result) VALUES
  ('CCC(=O)N[C@H]1CC[C@H](n2c(=O)c(-c3ccccc3Cl)cc3ccc(Nc4ccc(N5CCN(C)CC5)c(C)c4)cc32)CC1', 38.1),
  ('CC(=O)N[C@H]1CC[C@H](n2c(=O)c(-c3ccccc3Cl)cc3ccc(Nc4ccc(N5CCN(C)CC5)c(C)c4)cc32)CC1', 47.8),
  ('Cn1cc(-c2cc(C(=O)/N=c3\[nH]c4ccccc4n3[C@H]3CC[C@H](O)CC3)ccn2)cn1', 48.2),
  ('CN1CCN(c2ccc(Nc3ncc4nc(Nc5ccccc5)n([C@H]5CCN(S(=O)(=O)C6CC6)C5)c4n3)cc2)CC1', 18);

---

- EXPERIMENTAL_SYSTEM: Epidermal growth factor receptor (Homo sapiens, UniProt P00533, C797S/L858R/T790M)
- ASSAY_DETAILS: Inhibition of EGFR L858R/T790M/C797S triple mutant (unknown origin)
MEASUREMENT_LABEL: IC50 (nM)

INSERT INTO results (compound, unit_string, endpoint_result) VALUES
  ('CC(C)(C)n1cc(-c2cncc3ccccc23)c2c(N)ncnc21', 'nM', 53),
  ('CCC(=O)N1CCC[C@@H](N2CC(c3cccc(F)c3Cl)=C(C)c3cnc(Nc4ccc(N5CCN(C)CC5)c(C)c4)nc32)C1', 'nM', 27.5),
  ('COc1cc(N(C)CCN(C)C)ccc1Nc1nccc(-c2cn(CCCO)c3ccccc23)n1', 'nM', 8.5),
  ('CN(C)C1CCN(c2ccc(Nc3cc4c(N5CCC(CO)CC5)nc(Nc5ccc(F)cc5)nc4cn3)nc2)CC1', 'nM', 662),
  ('O=C(Nc1nccs1)C(c1ncn2c1CCC2)N1Cc2c(F)cc(C#Cc3ccc(CN4CCC(CO)CC4)cc3)cc2C1=O (stereo not drawn)', 'nM', 5),
  ('CN1CCN(c2ccc(Nc3ncc4nc(Nc5ccc(F)cc5)n([C@H]5CCN(S(=O)(=O)C6CC6)C5)c4n3)cc2)CC1', 'nM', 22),
  ('O=C1c2cc(F)ccc2Nc2ccccc2N1Cc1ccccc1', 'nM', 52),
  ('CN1CCN(c2ccc(Nc3ncc4nc(Nc5ccccc5)n([C@@H]5CCN(S(=O)(=O)C6CC6)C5)c4n3)cc2)CC1', 'nM', 40);

---

- EXPERIMENTAL_SYSTEM: Epidermal growth factor receptor (Homo sapiens, UniProt P00533, C797S/EX19DEL/T790M)
- Sequence (P00533 whole entry, looked up, stated change not applied): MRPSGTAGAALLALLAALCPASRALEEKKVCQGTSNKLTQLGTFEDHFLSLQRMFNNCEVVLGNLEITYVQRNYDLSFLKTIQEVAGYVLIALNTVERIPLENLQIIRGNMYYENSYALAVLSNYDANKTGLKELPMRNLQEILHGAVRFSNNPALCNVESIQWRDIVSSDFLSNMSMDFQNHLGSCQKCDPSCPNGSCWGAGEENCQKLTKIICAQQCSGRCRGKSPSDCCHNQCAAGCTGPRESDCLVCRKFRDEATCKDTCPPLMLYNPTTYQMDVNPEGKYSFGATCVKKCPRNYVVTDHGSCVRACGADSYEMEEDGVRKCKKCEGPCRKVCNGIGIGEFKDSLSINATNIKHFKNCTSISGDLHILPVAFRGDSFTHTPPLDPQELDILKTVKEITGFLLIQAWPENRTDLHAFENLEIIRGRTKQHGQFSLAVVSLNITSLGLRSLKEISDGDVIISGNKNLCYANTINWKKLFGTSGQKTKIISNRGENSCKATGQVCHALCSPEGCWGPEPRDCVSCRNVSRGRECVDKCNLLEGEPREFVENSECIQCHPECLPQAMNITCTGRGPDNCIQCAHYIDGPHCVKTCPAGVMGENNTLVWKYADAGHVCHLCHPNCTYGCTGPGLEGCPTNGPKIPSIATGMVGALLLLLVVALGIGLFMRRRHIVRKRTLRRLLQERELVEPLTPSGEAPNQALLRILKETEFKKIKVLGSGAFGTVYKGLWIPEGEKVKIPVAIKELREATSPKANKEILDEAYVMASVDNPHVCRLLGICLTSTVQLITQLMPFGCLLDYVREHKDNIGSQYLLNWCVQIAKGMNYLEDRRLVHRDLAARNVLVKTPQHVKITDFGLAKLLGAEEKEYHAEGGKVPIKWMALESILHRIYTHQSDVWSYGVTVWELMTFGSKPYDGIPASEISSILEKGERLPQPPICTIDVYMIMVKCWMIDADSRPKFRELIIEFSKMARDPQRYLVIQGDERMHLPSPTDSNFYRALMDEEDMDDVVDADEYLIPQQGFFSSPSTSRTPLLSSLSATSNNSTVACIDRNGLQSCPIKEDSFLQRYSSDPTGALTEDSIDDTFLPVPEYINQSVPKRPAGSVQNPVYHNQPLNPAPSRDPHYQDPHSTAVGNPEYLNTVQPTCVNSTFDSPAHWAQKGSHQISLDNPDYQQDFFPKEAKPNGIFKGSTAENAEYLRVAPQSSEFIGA
- ASSAY_DETAILS: Inhibition of EGFR Del19/T790M/C797S triple mutant (unknown origin)
Overview of reported IC50 across a group of compounds:
MEASUREMENT_LABEL: IC50 (nM)

INSERT INTO results (smiles_code, experimental_system, measurement_label, endpoint_result) VALUES
  ('N#Cc1ccc(O)c(-c2nc(NCc3cnccn3)c3ccccc3n2)c1', 'Epidermal growth factor receptor (Homo sapiens, UniProt P00533, C797S/EX19DEL/T790M)', 'IC50', 17.9),
  ('N#Cc1ccc(O)c(-c2nc(NCc3cccnc3)c3ccccc3n2)c1', 'Epidermal growth factor receptor (Homo sapiens, UniProt P00533, C797S/EX19DEL/T790M)', 'IC50', 23),
  ('Cn1cc(-c2cc(C(=O)/N=c3\[nH]c4ccccc4n3[C@H]3CC[C@H](O)CC3)ccn2)cn1', 'Epidermal growth factor receptor (Homo sapiens, UniProt P00533, C797S/EX19DEL/T790M)', 'IC50', 12),
  ('CCc1cc(Nc2ncc(Br)c(Nc3ccc4nccnc4c3P(C)(C)=O)n2)c(OC)cc1N1CCC(N2CCN(C)CC2)CC1', 'Epidermal growth factor receptor (Homo sapiens, UniProt P00533, C797S/EX19DEL/T790M)', 'IC50', 0.212);

---

- ASSAY_DETAILS: Inhibition of p-EGFR Del19/T790M/C797S triple mutant in mouse BaF3 cells
- Format: cell-based
pIC50: −log10 of the molar value.
MEASUREMENT_LABEL: pIC50

INSERT INTO measurements (smiles_code, result_operator, endpoint_result) VALUES
  ('CN1CC2(CCN(c3ccc(Nc4ncc(Cl)c(Nc5ccccc5P(C)(C)=O)n4)cc3Br)CC2)C1', '≥', 7.00),
  ('C=C(C)c1cnc(Nc2ccc(N3CCC4(CC3)CN(C)C4)cc2)nc1Nc1ccccc1P(C)(C)=O', '≥', 7.00),
  ('CC(C)(O)Cn1/c(=N/C(=O)c2cc(F)cc(-c3cccnc3)c2)[nH]c2ccccc21', '=', 6.10),
  ('Cc1cc(Nc2ncc(Cl)c(Nc3ccccc3P(C)(C)=O)n2)ccc1N1CCC2(CC1)CN(C)C2', '≥', 7.00),
  ('Cc1cc2cc(n1)-c1cnn(C)c1OCCC[C@@H](C)CN1/C(=N/C2=O)Nc2ccc(CN3CCN(C)CC3)cc21', '=', 9.22);

---

- EXPERIMENTAL_SYSTEM: Epidermal growth factor receptor (Homo sapiens, UniProt P00533, C797S/L858R/T790M)
- ASSAY_DETAILS: Inhibition of EGFR L858R/T790M/C797S triple mutant (unknown origin) in human NCI-H1975 cell
- Assay type: cell-based
MEASUREMENT_LABEL: IC50 (nM)

INSERT INTO results (smiles_code, unit_string, endpoint_result) VALUES
  ('N#Cc1ccc(O)c(-c2nc(NCc3ncccn3)c3ccccc3n2)c1', 'nM', 1200);
